Test system: bronchus in guinea pigs (contractile response induced by Mch)
Assay: Antagonism of contractile response of bronchus in guinea pigs induced by methacholine (Mch); airway resistance and pulmonary dynamic compliance
Assay type: in vivo, guinea pig
Conditions: 1 μg/kg dropped in the airway, Mch 10 μg/kg iv after 30 min
Measured Property: inhibition ratio against the decrease of pulmonary dynamic compliance (%)

[
  {
    "Compound": "OC(CO[C@@H]1C[N+]2(CCCOc3ccccc3)CCC1CC2)(c1ccccc1)C1CCCC1.[Br-] (stereo partly shown) [Example 4]",
    "Recorded Value": 11.2
  },
  {
    "Compound": "OC(CO[C@H]1C[N+]2(CCCOc3ccccc3)CCC1CC2)(c1ccccc1)C1CCC1.[Br-] (stereo partly shown) [Example 14]",
    "Recorded Value": 11.0
  },
  {
    "Compound": "O[C@@](COC1C[N+]2(CCCOc3ccccc3)CCC1CC2)(c1ccccc1)C1CCCCC1.[Br-] (stereo partly shown) [Example 10]",
    "Recorded Value": 10.9
  },
  {
    "Compound": "O[C@@](CO[C@@H]1C[N+]2(CCOc3ccccc3)CCC1CC2)(c1ccccc1)C1CCCC1.[Br-] [Example 26]",
    "Recorded Value": 11.0
  }
]
